Data provenance: ChEMBL document CHEMBL1158240

# System: MCF7
# assay-protocol: Cytotoxicity against human MCF7 cells after 7 days by MTT assay
# Assay type: functional
# condition-description: MCF7, 168 h, read-out: ED50 (the source's name)
assay-endpoint: EC50 (µg/mL)

{"compound": "C=C(C)[C@H]1Cc2cc(C(C)=O)c(OC)cc2O1", "system-under-test": "MCF7", "assay-endpoint": "EC50", "units-of-measure": "µg/mL", "value-measured": 33}
{"compound": "COc1cc2c(cc1C(C)=O)C=CC(C)(C)O2 [ENCECALIN]", "system-under-test": "MCF7", "assay-endpoint": "EC50", "units-of-measure": "µg/mL", "value-measured": 29}
{"compound": "COc1cccc2c1C(=O)c1c(O)c3c(c(O)c1C2=O)C[C@@](O)(C(=O)CO)C[C@@H]3O[C@H]1C[C@H](N)[C@H](O)[C@H](C)O1 [DOXORUBICIN]", "system-under-test": "MCF7", "assay-endpoint": "EC50", "units-of-measure": "µg/mL", "value-measured": 0.02}
{"compound": "C=C(C)c1cc2cc(C(C)=O)c(O)cc2o1 [EUPARIN]", "system-under-test": "MCF7", "assay-endpoint": "EC50", "units-of-measure": "µg/mL", "value-measured": 6}
{"compound": "C=C(C)[C@@H]1Oc2cc(O)c(C(C)=O)cc2[C@H]1OC", "system-under-test": "MCF7", "assay-endpoint": "EC50", "units-of-measure": "µg/mL", "value-measured": 34}
{"compound": "COC(C)(C)/C=C/c1cc(C(C)=O)ccc1O[C@@H]1O[C@H](CO)[C@@H](O)[C@H](O)[C@H]1O", "system-under-test": "MCF7", "assay-endpoint": "EC50", "units-of-measure": "µg/mL", "value-measured": 44}
{"compound": "CC(=O)c1cc2c(cc1O)OC(C)(C)C=C2 [DEMETHYLENCECALIN]", "system-under-test": "MCF7", "assay-endpoint": "EC50", "units-of-measure": "µg/mL", "value-measured": 2}

* * *

Each record here notes measured LC50.
# assay-protocol: Toxicity in brine shrimp
# Assay type: organism-based
# condition-description: artemia, in vivo
assay-endpoint: LC50 (µg/mL)

{"compound": "COc1cc2c(cc1C(C)=O)C=CC(C)(C)O2 [ENCECALIN]", "bound-operator": "=", "value-measured": 31}
{"compound": "C=C(C)[C@H]1Cc2cc(C(C)=O)c(OC)cc2O1", "bound-operator": "=", "value-measured": 8}
{"compound": "C=C(C)[C@@H]1Oc2cc(O)c(C(C)=O)cc2[C@H]1OC", "bound-operator": "=", "value-measured": 68}
{"compound": "C=C(C)c1cc2cc(C(C)=O)c(O)cc2o1 [EUPARIN]", "bound-operator": "=", "value-measured": 44}
{"compound": "CC(=O)c1cc2c(cc1O)OC(C)(C)C=C2 [DEMETHYLENCECALIN]", "bound-operator": "=", "value-measured": 31}
{"compound": "COC(C)(C)/C=C/c1cc(C(C)=O)ccc1O[C@@H]1O[C@H](CO)[C@@H](O)[C@H](O)[C@H]1O", "bound-operator": ">", "value-measured": 1000}
